biological target: Full length wild-type cereblon CRBN (Homo sapiens); construct: Full length wild-type cereblon CRBN (80.0 nM, 10 μL) was incubated in assay buffer; assay: Fluorescence polarization (FP) assay, cereblon binding; settings: bounds stated in the text lists b2059-b2061; read-out: IC50 value
pIC50: −log10 of the molar value.
# key: entry, value: pIC50

Molecule	Value
CN1CCC(COc2cc(Cl)cc(NC(=O)OCc3ccc4c(c3)C(=O)N(C3CCC(=O)NC3=O)C4)c2)C1 (centres unmarked)	> 5.96
Cc1c(Cl)cc(NC(=O)OCc2ccc3c(c2)C(=O)N(C2CCC(=O)NC2=O)C3)cc1CN1CCOCC1 (centres unmarked)	> 5.77
Cc1ccc(NC(=O)OCc2ccc3c(c2)C(=O)N(C2CCC(=O)NC2=O)C3)cc1Cl (centres unmarked)	> 5.77
O=C1CCC(N2Cc3ccc(COC(=O)Nc4ccc5c(c4)CCC5)cc3C2=O)C(=O)N1 (centres unmarked)	> 5.77
Cc1ccc(NC(=O)OCc2ccc3c(c2)C(=O)N(C2CCC(=O)NC2=O)C3)cc1F (centres unmarked)	> 5.96
O=C1CCC(N2Cc3ccc(COC(=O)Nc4ccc(N5CCC(F)(F)CC5)nc4)cc3C2=O)C(=O)N1 (centres unmarked)	> 5.96
O=C1CCC(N2Cc3ccc(COC(=O)Nc4ccc5c(c4)OCC5)cc3C2=O)C(=O)N1 (centres unmarked)	> 5.77

Summary: O=C1CCC(N2Cc3ccc(COC(=O)Nc4ccc(C5CC5)cc4)cc3C2=O)C(=O)N1 (centres unmarked) , Full length wild-type cereblon CRBN (Homo sapiens), pIC50 = > 5.77

---

target: Full length wild-type cereblon CRBN (Homo sapiens); construct: Full length wild-type cereblon CRBN (80.0 nM, 10 μL) was incubated in assay buffer; assay: Fluorescence polarization (FP) assay, cereblon binding; settings: bounds stated in the text lists b2059-b2061; read-out: IC50 value
# key: entry, value: IC50

Worked set:
Compound	Value
O=C1CCC(N2Cc3ccc(COC(=O)NC4CCN(c5ccccn5)CC4)cc3C2=O)C(=O)N1 (centres unmarked) [Compound 35]	< 1100 nM
O=C1CCC(N2Cc3ccc(COC(=O)Nc4cnc5c(c4)CCC5)cc3C2=O)C(=O)N1 (centres unmarked) [Compound 53]	< 1700 nM
Cc1ccccc1-c1ccc(NC(=O)OCc2ccc3c(c2)C(=O)N(C2CCC(=O)NC2=O)C3)cn1 (centres unmarked) [Compound 86]	< 1700 nM
O=C1CCC(N2Cc3ccc(COC(=O)Nc4cc(F)cc(Cl)c4)cc3C2=O)C(=O)N1 (centres unmarked) [Compound 12]	< 1700 nM
Cc1cc(C)cc(NC(=O)OCc2ccc3c(c2)C(=O)N(C2CCC(=O)NC2=O)C3)c1 (centres unmarked) [Compound 8]	< 1700 nM
CC1CCN(c2ccc(NC(=O)OCc3ccc4c(c3)C(=O)N(C3CCC(=O)NC3=O)C4)cn2)C1 (centres unmarked) [Compound 69]	< 1100 nM
Cc1ncc(NC(=O)OCc2ccc3c(c2)C(=O)N(C2CCC(=O)NC2=O)C3)cc1OC(F)(F)F (centres unmarked) [Compound 91]	< 1700 nM

Noted for Cc1cc(F)c(NC(=O)OCc2ccc3c(c2)C(=O)N(C2CCC(=O)NC2=O)C3)cc1Cl (centres unmarked) [Compound 141] : its IC50 reads < 1100 nM

---

molecular target: Full length wild-type cereblon CRBN (Homo sapiens, UniProt Q96SW2); construct: Full length wild-type cereblon CRBN (80.0 nM, 10 μL) was incubated in assay buffer; test: Fluorescence polarization (FP) assay, cereblon binding; conditions: bounds stated in the text lists b2059-b2061; read-out: IC50 value
Sequence (Q96SW2 whole entry): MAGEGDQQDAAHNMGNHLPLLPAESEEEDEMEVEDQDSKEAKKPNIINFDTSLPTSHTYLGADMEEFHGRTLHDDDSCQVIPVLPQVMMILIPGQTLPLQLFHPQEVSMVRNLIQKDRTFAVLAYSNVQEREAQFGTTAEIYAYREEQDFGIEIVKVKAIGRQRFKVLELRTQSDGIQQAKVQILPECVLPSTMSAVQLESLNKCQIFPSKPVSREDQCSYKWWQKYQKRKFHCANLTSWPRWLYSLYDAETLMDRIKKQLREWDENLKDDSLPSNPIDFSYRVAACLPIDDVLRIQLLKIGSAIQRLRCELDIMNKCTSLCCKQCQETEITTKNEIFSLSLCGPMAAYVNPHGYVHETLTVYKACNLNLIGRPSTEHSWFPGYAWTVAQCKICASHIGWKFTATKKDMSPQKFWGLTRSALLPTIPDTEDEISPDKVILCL
pIC50: −log10 of the molar value.
Readout: pIC50

Compound	pIC50
O=C1CCC(N2Cc3ccc(COC(=O)Nc4ccc5c(c4)OC(F)(F)O5)cc3C2=O)C(=O)N1 (stereo not shown)	> 5.77
CC1CCCN1c1ccc(NC(=O)OCc2ccc3c(c2)C(=O)N(C2CCC(=O)NC2=O)C3)cn1 (stereo not shown)	> 5.96
N#Cc1cc(Cl)cc(NC(=O)OCc2ccc3c(c2)C(=O)N(C2CCC(=O)NC2=O)C3)c1 (stereo not shown)	> 5.96

# evaluate next
Noted for Cc1cc(C)c(NC(=O)OCc2ccc3c(c2)C(=O)N(C2CCC(=O)NC2=O)C3)cc1Cl (stereo not shown) : its pIC50 reads > 5.96

---

molecular target: CRBN-DDB1 (Homo sapiens); test: HTRF binding of compounds to CRBN
Sequence (Q16531 whole entry partner, one chain of several): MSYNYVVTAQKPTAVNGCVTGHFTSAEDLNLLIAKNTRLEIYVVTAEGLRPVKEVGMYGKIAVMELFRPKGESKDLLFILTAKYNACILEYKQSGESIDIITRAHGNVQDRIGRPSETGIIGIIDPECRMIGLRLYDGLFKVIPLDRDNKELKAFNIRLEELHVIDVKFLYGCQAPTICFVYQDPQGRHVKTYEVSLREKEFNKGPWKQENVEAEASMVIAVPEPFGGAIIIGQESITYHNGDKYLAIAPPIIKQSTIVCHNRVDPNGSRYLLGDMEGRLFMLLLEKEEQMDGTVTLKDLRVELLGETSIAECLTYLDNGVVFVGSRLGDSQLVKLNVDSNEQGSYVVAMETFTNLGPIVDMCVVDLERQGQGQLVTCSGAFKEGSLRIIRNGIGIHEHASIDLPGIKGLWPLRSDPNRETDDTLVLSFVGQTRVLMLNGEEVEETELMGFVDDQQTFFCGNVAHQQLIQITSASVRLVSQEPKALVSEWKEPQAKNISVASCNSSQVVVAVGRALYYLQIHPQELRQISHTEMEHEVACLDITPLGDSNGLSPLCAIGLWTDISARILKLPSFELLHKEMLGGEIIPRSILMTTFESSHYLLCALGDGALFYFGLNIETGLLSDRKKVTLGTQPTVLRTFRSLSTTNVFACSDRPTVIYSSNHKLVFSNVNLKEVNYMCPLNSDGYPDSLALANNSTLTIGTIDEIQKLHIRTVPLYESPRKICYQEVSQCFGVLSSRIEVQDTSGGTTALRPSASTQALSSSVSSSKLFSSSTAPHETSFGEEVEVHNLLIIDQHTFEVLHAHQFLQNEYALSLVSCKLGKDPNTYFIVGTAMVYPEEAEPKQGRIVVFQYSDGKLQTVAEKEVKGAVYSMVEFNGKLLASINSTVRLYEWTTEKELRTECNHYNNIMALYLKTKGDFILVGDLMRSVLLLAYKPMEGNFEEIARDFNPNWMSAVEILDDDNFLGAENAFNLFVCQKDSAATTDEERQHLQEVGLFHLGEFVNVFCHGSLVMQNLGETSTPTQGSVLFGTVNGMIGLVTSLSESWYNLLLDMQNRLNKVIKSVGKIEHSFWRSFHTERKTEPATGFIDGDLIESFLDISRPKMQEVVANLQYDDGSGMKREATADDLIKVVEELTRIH
# key: entry, value: IC50

Worked set:
Molecule	IC50
Cc1cc(F)c(NC(=O)OCc2ccc3c(c2)C(=O)N(C2CCC(=O)NC2=O)C3)cc1C(F)(F)F (stereo not drawn)	100 to 1000 nM
CC(C)(C)c1ccc(F)c(NC(=O)OCc2ccc3c(c2)C(=O)N(C2CCC(=O)NC2=O)C3)c1 (stereo not drawn)	100 to 1000 nM

# evaluate next
Noted for O=C1CCC(N2Cc3ccc(COC(=O)NC45CC(F)(C4)C5)cc3C2=O)C(=O)N1 (stereo not drawn) : its IC50 reads 100 to 1000 nM

---

target: Full length wild-type cereblon CRBN (Homo sapiens); construct: Full length wild-type cereblon CRBN (80.0 nM, 10 μL) was incubated in assay buffer; assay: Fluorescence polarization (FP) assay, cereblon binding; conditions: bounds stated in the text lists b2059-b2061; read-out: IC50 value
pIC50: −log10 of the molar value.
# key: entry, value: pIC50

Compound	Value
O=C1CCC(N2Cc3ccc(COC(=O)N4CCN(c5ccccc5)CC4)cc3C2=O)C(=O)N1 (stereo not drawn)	> 5.96
O=C1CCC(N2Cc3ccc(COC(=O)Nc4ccc(N5CCCC(F)(F)C5)nc4)cc3C2=O)C(=O)N1 (stereo not drawn)	> 5.96
O=C1CCC(N2Cc3ccc(COC(=O)Nc4ccc5c(c4)CCCO5)cc3C2=O)C(=O)N1 (stereo not drawn)	> 5.77
O=C1CCC(N2Cc3ccc(COC(=O)Nc4ccc(N5CCCCC5)nn4)cc3C2=O)C(=O)N1 (stereo not drawn)	> 5.96
C[C@@H]1CCCN1c1ccc(NC(=O)OCc2ccc3c(c2)C(=O)N(C2CCC(=O)NC2=O)C3)cn1 (stereo partly drawn)	> 5.96

Noted for O=C1CCC(N2Cc3ccc(COC(=O)Nc4cccc(OC(F)F)c4)cc3C2=O)C(=O)N1 (stereo not drawn) : its pIC50 reads > 5.77

Noted for O=C1CCC(N2Cc3ccc(COC(=O)Nc4cc(Cl)cc(OCC5CCNC5)c4)cc3C2=O)C(=O)N1 (stereo not drawn) : its pIC50 reads > 5.96

Noted for O=C1CCC(N2Cc3ccc(COC(=O)Nc4ccc(N5CCC5)nc4)cc3C2=O)C(=O)N1 (stereo not drawn) : its pIC50 reads > 5.96

Noted for CCc1cc(NC(=O)OCc2ccc3c(c2)C(=O)N(C2CCC(=O)NC2=O)C3)cc(C)n1 (stereo not drawn) : its pIC50 reads > 5.77

Noted for Cc1ncc(NC(=O)OCc2ccc3c(c2)C(=O)N(C2CCC(=O)NC2=O)C3)cc1Cl (stereo not drawn) : its pIC50 reads > 5.77

Noted for CCc1cc(NC(=O)OCc2ccc3c(c2)C(=O)N(C2CCC(=O)NC2=O)C3)ccn1 (stereo not drawn) : its pIC50 reads > 5.96

Noted for COc1ccccc1-c1ccc(NC(=O)OCc2ccc3c(c2)C(=O)N(C2CCC(=O)NC2=O)C3)cn1 (stereo not drawn) : its pIC50 reads > 5.77

Noted for O=C1CCC(N2Cc3ccc(COC(=O)Nc4cc(CN5CCOCC5)cc(OC(F)(F)F)c4)cc3C2=O)C(=O)N1 (stereo not drawn) : its pIC50 reads > 5.77

Noted for CC1(c2ccc(NC(=O)OCc3ccc4c(c3)C(=O)N(C3CCC(=O)NC3=O)C4)cc2)COC1 (stereo not drawn) : its pIC50 reads > 5.77

Noted for CN1CCC(Oc2cc(Cl)cc(NC(=O)OCc3ccc4c(c3)C(=O)N(C3CCC(=O)NC3=O)C4)c2)C1 (stereo not drawn) : its pIC50 reads > 5.96

Noted for Cc1ccc(NC(=O)OCc2ccc3c(c2)C(=O)N(C2CCC(=O)NC2=O)C3)cc1OC(F)F (stereo not drawn) : its pIC50 reads > 5.77

Noted for COc1cc(Cl)ccc1NC(=O)OCc1ccc2c(c1)C(=O)N(C1CCC(=O)NC1=O)C2 (stereo not drawn) : its pIC50 reads > 5.77

Noted for Cc1cc(NC(=O)OCc2ccc3c(c2)C(=O)N(C2CCC(=O)NC2=O)C3)cc(C)c1F (stereo not drawn) : its pIC50 reads > 5.96

---

molecular target: Full length wild-type cereblon CRBN (Homo sapiens); construct: Full length wild-type cereblon CRBN (80.0 nM, 10 μL) was incubated in assay buffer; assay: Fluorescence polarization (FP) assay, cereblon binding; conditions: cereblon binding, class code; read-out: rFP IC50
pIC50: −log10 of the molar value.
Readout: pIC50

Compound	pIC50
O=C1CCC(N2Cc3ccc(COC(=O)Nc4ccc5c(c4)CCC5)cc3C2=O)C(=O)N1 (centres unmarked)	5.77 to 5.96
O=C1CCC(N2Cc3ccc(COC(=O)Nc4cccc(OC(F)(F)F)c4)cc3C2=O)C(=O)N1 (centres unmarked)	5.77 to 5.96

Noted for Cc1ncc(NC(=O)OCc2ccc3c(c2)C(=O)N(C2CCC(=O)NC2=O)C3)cc1Cl (centres unmarked) : its pIC50 reads 5.96 to 6.30

Noted for COc1cc(NC(=O)OCc2ccc3c(c2)C(=O)N(C2CCC(=O)NC2=O)C3)cnc1-c1ccccc1 (centres unmarked) : its pIC50 reads 5.77 to 5.96

Noted for Cc1ccccc1-c1ccc(NC(=O)OCc2ccc3c(c2)C(=O)N(C2CCC(=O)NC2=O)C3)cn1 (centres unmarked) : its pIC50 reads 5.96 to 6.30
